Origin of measurements: paper PMC5630632

System: RBE (R132S) cells
Test: 2-HG production, monolayer (2D), mass spectrometry, RBE
Assay type: cell-based
Details: Homo sapiens, mass spec, read-out: 2D Cellular 2HG Production (Mass Spec) RBE (R132S) EC50
Protocol: (Supplementary Table 2). Inhibition of the target was assessed by quantitative measurement of 2-HG levels in extracellular media of monolayer (or 2-dimentional, 2D) cultures following incubation (48 hrs) with inhibitors. […] treated 96-well plates (Corning) at a density of 8000 cells/well/100 μL . […] Samples were analyzed by LC-MS for 2- HG concentrations using Rapidfire / Mass Spectrometry (Quintara) (4) . […]
parameter: EC50 (nM)
Report only the number, with the unit nM understood.

Consider the following illustrative entries.
CC(C)[C@H]1COC(=O)N1c1ccnc(N[C@@H](C)c2ccc(C(=O)NC3CCCC3)c(Cl)c2)n1 : 78
N#Cc1ccnc(N2C(=O)CC[C@H]2C(=O)N(c2cncc(F)c2)[C@H](C(=O)NC2CC(F)(F)C2)c2ccccc2Cl)c1 : 220

Let's switch to this compound now.
Prompt line: Query (compound): Cc1ccccc1[C@@H](C(=O)NC1CCCC1)N(C(=O)Cn1cnc2ccccc21)c1cccc(F)c1 ; field requested: EC50
Response line: 970
